Values from patent US9745299B2

Molecular target: CDK2/CyclinE (Homo sapiens)
Construct: purchased Millipore, Billerica, Mass., USA
Assay: ADP-Glo Kinase Assay, CDK2/CyclinE
Assay type: biochemical
Conditions: read-out: % inhibition at 1 μM CDK2/CyclinE
assay-endpoint: inhibition at 1 µM

In [3]: df
Out[3]:
                                   compound      assay_endpoint  result
0            Nc1nc2c(I)c(Br)c(Br)c3c2n1CCC3  inhibition at 1 µM     21%
1  OC1CCN(c2nc3c(I)c(Br)c(Br)c4c3n2CCC4)CC1  inhibition at 1 µM     16%
2  C[C@H]1CN(c2nc3c(Br)c(Br)c(Br)c4c3n2CCC4)CCN1  inhibition at 1 µM     20%
3  N[C@H]1CCN(c2nc3c(Br)c(Br)c(Br)c4c3n2CCC4)C1  inhibition at 1 µM     29%
4  O=[N+]([O-])c1c(Br)c(Br)c2c3c1nc(N1CCNCC1)n3CCC2  inhibition at 1 µM      8%

Record summary for NCCCNc1nc2c(Br)c(Br)c(Br)c3c2n1CCC3 : reported inhibition at 1 µM = 8%

The compound listed as OCC1CCCN(c2nc3c(Br)c(Br)c(Br)c4c3n2CCC4)C1 (stereo not shown) has a reported inhibition at 1 µM of 9%

---

Biological target: CDK5/p25 (Homo sapiens)
Construct: purchased Millipore, Billerica, Mass., USA
Sequence (Q00535 whole entry): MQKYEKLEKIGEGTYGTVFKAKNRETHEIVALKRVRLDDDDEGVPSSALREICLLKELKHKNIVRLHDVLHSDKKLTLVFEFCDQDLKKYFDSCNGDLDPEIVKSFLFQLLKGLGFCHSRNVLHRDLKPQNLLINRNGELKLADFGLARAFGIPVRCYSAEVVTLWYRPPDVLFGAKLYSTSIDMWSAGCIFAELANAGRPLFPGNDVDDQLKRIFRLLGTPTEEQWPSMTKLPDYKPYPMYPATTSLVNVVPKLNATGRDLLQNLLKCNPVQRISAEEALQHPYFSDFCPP
Sequence (Q15078 99-307 partner limits assumed): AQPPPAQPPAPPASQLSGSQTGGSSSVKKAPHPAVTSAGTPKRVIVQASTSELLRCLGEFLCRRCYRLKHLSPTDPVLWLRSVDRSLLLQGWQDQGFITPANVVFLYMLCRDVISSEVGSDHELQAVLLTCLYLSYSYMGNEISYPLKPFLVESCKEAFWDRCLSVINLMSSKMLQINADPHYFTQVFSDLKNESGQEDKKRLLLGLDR
Assay: ADP-Glo Kinase Assay, CDK5/p25; also: ATP at apparent Km (12 µM)
Type: biochemical
Settings: read-out: % inhibition at 1 μM CDK5/p25
Counter-ions that a name gives are not always drawn.
Catalogue of molecules with associated inhibition at 1 µM
Just so you know, I need the unit written after the number.

Example results:
In [3]: df
Out[3]:
                                   molecule  result
0  O=[N+]([O-])c1c(Br)c(Br)c2c3c1nc(N1CCNCC1)n3CCC2     27%
1     Brc1c(Br)c2c3c(nc(N4CCNCC4)n3CCC2)c1I      4%
2  NCCNc1nc2c(Br)c(Br)c(Br)c3c2n1CCC3 [Example 1A, hydrochloride]      0%

Consider the additional molecule presented here.
Field inhibition at 1 µM (CDK5/p25 (Homo sapiens)), entry OC1CCN(c2nc3c(Br)c(Br)c(Br)c4c3n2CCC4)CC1 : 0%

---

Molecular target: CDK1/CyclinB (Homo sapiens)
Construct: purchased Millipore, Billerica, Mass., USA
Sequence (P06493 whole entry): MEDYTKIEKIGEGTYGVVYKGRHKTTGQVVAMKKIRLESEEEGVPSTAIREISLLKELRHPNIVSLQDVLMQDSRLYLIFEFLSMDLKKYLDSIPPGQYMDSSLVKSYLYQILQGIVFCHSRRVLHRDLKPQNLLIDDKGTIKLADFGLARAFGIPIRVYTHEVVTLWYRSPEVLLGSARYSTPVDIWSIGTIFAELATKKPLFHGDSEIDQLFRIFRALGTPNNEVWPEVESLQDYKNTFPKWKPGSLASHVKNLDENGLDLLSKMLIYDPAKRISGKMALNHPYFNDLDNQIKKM
Sequence (P14635 whole entry partner): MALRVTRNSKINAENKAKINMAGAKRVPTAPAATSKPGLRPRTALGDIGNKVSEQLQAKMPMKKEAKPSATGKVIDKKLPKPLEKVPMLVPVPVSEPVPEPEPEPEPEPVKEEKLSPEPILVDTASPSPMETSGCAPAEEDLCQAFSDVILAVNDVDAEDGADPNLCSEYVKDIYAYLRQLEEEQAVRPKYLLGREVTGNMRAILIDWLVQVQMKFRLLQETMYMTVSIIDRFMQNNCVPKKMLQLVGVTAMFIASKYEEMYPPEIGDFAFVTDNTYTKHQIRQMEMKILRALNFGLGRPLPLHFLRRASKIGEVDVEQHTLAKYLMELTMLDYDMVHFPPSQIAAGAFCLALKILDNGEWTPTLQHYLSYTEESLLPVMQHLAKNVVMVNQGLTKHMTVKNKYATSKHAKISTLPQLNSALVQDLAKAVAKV
Experiment: ADP-Glo Kinase Assay, CDK1/CyclinB; also: ATP at apparent Km (20 µM)
Format: biochemical
Conditions: read-out: % inhibition at 1 μM CDK1/CyclinB
Structures can show the parent of a compound that is named as a salt.
assay-endpoint: inhibition at 1 µM
I'd appreciate it if you wrote the number followed by its unit.

Here is how some compounds turned out for inhibition at 1 µM.
>>> df
                                   compound      assay_endpoint  result
0     Brc1c(Br)c2c3c(nc(N4CCNCC4)n3CCC2)c1I  inhibition at 1 µM     32%
1           Nc1nc2c(Br)c(Br)c(Br)c3c2n1CCC3  inhibition at 1 µM      0%
2  OC1CCN(c2nc3c(Br)c(Br)c(Br)c4c3n2CCC4)CC1  inhibition at 1 µM      0%
3    Brc1c(Br)c2c3c(nc(C4CCNCC4)n3CCC2)c1Br  inhibition at 1 µM     43%
4     Cc1c(Br)c(Br)c2c3c1nc(C1CCNCC1)n3CCC2  inhibition at 1 µM      0%

Documented inhibition at 1 µM of CC1CCCN1c1nc2c(Br)c(Br)c(Br)c3c2n1CCC3 (centres unmarked) : 0%

Given item NCCNc1nc2c(Br)c(Br)c(Br)c3c2n1CCC3 [Example 1A, hydrochloride] , the value recorded as its inhibition at 1 µM is 0%

Just so you know, measured inhibition at 1 µM for NCCNc1nc2c(I)c(Br)c(Br)c3c2n1CCC3 came out at 7%

The compound Cc1c(Br)c(Br)c2c3c1nc(N1CCNCC1)n3CCC2 showed inhibition at 1 µM equal to 0%

Notebook: Brc1c(Br)c2c3c(nc(N4CCNCC4)n3CCC2)c1Br [Example 6, maleate] , inhibition at 1 µM read as 38%

Value of inhibition at 1 µM reported for the compound Cc1c(Br)c(Br)c2c3c1nc(C1CCN(C)CC1)n3CCC2 [Example 7A, hydrochloride] is 0%
